- system_name: MAPK14 (human)
- method: Inhibition of MAPK14 Kinase Activity
- condition_description: concentration not given here
reported_metric: inhibition

Record excerpt, results attached:
Kindly note the recorded inhibition for CC(C)(C)c1cc(C(=O)N2CCC(=O)N(CC(N)=O)CC2)c(NC(=O)Nc2cccc(Cl)c2Cl)s1 , which is 76 to 100%

Kindly note the recorded inhibition for Cc1cccc(NC(=O)Nc2sc(C(C)(C)C)cc2C(=O)N2CCNS(=O)(=O)CC2)c1 , which is 76 to 100%

Kindly note the recorded inhibition for CC(C)(C)c1cc(NC(=O)Nc2ccc(Cl)c(Cl)c2)c(C(=O)N2CCNC(=O)CC2)s1 , which is 76 to 100%

Kindly note the recorded inhibition for CC(C)(C)c1cc(C(=O)N2CCNS(=O)(=O)CC2)c(NC(=O)Nc2ccc3ocnc3c2)s1 , which is 76 to 100%

Kindly note the recorded inhibition for CC(C)(C)c1cc(NC(=O)Nc2cccc(Cl)c2Cl)c(C(=O)N2CCNC(=O)CC2)s1 , which is 76 to 100%

Kindly note the recorded inhibition for CC(C)(C)c1nc(NC(=O)Nc2cccc3ccccc23)c(C(=O)N2CCNC(=O)CC2)s1 , which is 76 to 100%

Kindly note the recorded inhibition for Cc1cccc(NC(=O)Nc2sc(C(C)(C)C)cc2C(=O)N2CCNC(=O)CC2)c1 , which is 76 to 100%

Kindly note the recorded inhibition for COCCN1CCN(C(=O)c2cc(C(C)(C)C)sc2NC(=O)Nc2cccc(Cl)c2Cl)CCC1=O , which is 76 to 100%

Let us move to another entry and its inhibition.
Kindly note the recorded inhibition for CC(C)(C)c1cc(C(=O)N2CCNC(=O)CC2)c(NC(=O)Nc2ccc(C#N)c(Cl)c2)s1 , which is 76 to 100%

* * *

- system_name: MAPK14 (human) (UniProt Q16539)
- Sequence (Q16539 whole entry, looked up): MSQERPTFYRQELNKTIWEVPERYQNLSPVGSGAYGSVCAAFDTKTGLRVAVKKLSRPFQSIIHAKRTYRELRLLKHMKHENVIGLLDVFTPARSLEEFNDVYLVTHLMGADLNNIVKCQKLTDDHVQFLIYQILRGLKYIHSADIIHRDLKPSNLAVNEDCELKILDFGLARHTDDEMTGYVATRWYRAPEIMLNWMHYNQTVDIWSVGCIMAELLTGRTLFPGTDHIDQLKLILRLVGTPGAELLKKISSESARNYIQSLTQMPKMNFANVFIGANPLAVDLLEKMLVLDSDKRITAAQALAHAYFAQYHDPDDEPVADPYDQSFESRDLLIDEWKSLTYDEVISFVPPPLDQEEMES
- method: Inhibition of MAPK14 Kinase Activity
- condition_description: concentration not given here
Below, each entry is listed alongside its reported inhibition.

Kindly note the recorded inhibition for CC(C)(C)c1cc(C(=O)N2CCNS(=O)(=O)CC2)c(NC(=O)NC2(c3ccccc3)CC2)s1 , which is 26 to 50%

Kindly note the recorded inhibition for CC(C)(C)c1cc(C(=O)N2CCC(=O)N(CCC(N)=O)CC2)c(NC(=O)Nc2cccc(Cl)c2Cl)s1 , which is 76 to 100%

Kindly note the recorded inhibition for CC(C)(C)c1cc(C(=O)N2CCNC(=O)CC2)c(NC(=O)Nc2ccc(CN)c3ccccc23)s1 , which is 76 to 100%

Kindly note the recorded inhibition for CC(C)(C)c1cc(C(=O)N2CCNS(=O)(=O)CC2)c(NC(=O)Nc2cc(Cl)cc(Cl)c2)s1 , which is 76 to 100%

Kindly note the recorded inhibition for COCOCCN1CCN(C(=O)c2cc(C(C)(C)C)sc2NC(=O)Nc2cccc(Cl)c2Cl)CCC1=O , which is 76 to 100%

Kindly note the recorded inhibition for CC(C)(C)c1cc(C(=O)N2CCNS(=O)(=O)CC2)c(NC(=O)Nc2ccc(C#N)cc2C(F)(F)F)s1 , which is 76 to 100%

Further cases:
Kindly note the recorded inhibition for Cn1ccc(NC(=O)Nc2sc(C(C)(C)C)cc2C(=O)N2CCNS(=O)(=O)CC2)n1 , which is 26 to 50%

Kindly note the recorded inhibition for CC(C)(C)c1cc(C(=O)N2CCNS(=O)(=O)CC2)c(NC(=O)Nc2cnc(O)c3ccccc23)s1 , which is 26 to 50%

* * *

pIC50: −log10 of the molar value.
Entries with reported pIC50 on MAPK14 (human)

// returns pIC50 for CC(C)(C)c1cc(C(=O)N2CCCC(O)C2)c(NC(=O)Nc2cccc(Cl)c2Cl)s1 (stereo not drawn) with MAPK14 (human); value = > 5.30

// returns pIC50 for COC(=O)CN1CCN(C(=O)c2nc(C(C)(C)C)sc2NC(=O)Nc2cccc(Cl)c2Cl)C(C)(C)C1=O with MAPK14 (human); value = > 5.30

Let us move to another entry and its pIC50.
// returns pIC50 for CC(C)(C)c1cc(C(=O)N2CCNC(=O)CC2)c(NC(=O)Nc2ccc(O)c(Cl)c2Cl)s1 with MAPK14 (human); value = > 5.30

* * *

Below, each entry is listed alongside its reported inhibition.
- system_name: MAPK14 (human) (UniProt Q16539)
- method: Inhibition of MAPK14 Kinase Activity
- condition_description: concentration not given here

Kindly note the recorded inhibition for CC(C)(C)c1cc(C(=O)N2CCNS(=O)(=O)CC2)c(NC(=O)Nc2ccc(C#N)c(Cl)c2)s1 , which is 76 to 100%

Kindly note the recorded inhibition for CC(C)(C)c1cc(C(=O)N2CCNC(=O)C(N)C2)c(NC(=O)Nc2cccc(Cl)c2Cl)s1 (centres undefined) , which is 76 to 100%

Kindly note the recorded inhibition for COCCOCCN1CCN(C(=O)c2cc(C(C)(C)C)sc2NC(=O)Nc2cccc(Cl)c2Cl)CCC1=O , which is 76 to 100%

Kindly note the recorded inhibition for COC(=O)CC1C(=O)NCCN1C(=O)c1cc(C(C)(C)C)sc1NC(=O)Nc1ccc2ccccc2c1 (centres undefined) , which is 76 to 100%

Kindly note the recorded inhibition for CNC(=O)Nc1cc(C(C)(C)C)sc1C(=O)N1CCNC(=O)CC1 , which is 0 to 25%

Kindly note the recorded inhibition for CC(C)(C)c1cc(C(=O)N2CCNS(=O)(=O)CC2)c(NC(=O)NC(C)(C)c2ccccc2)s1 , which is 51 to 75%

Kindly note the recorded inhibition for CC(C)(C)c1cc(C(=O)N2CCNC(=O)CC2)c(NC(=O)Nc2ccc(CN)cc2)s1 , which is 51 to 75%

Kindly note the recorded inhibition for CC(C)(C)c1cc(C(=O)N2CCNC(=O)CC2)c(NC(=O)NC2CCNCC2)s1 , which is 0 to 25%

Kindly note the recorded inhibition for CC(C)(C)c1cc(C(=O)N2CCNC(=O)CC2)c(NC(=O)Nc2ccnc3ccccc23)s1 , which is 51 to 75%
